target.entity: hV2R[L^83Q] (Homo sapiens, UniProt P30518, L83Q)
experiment.description: uHTS optimized primary V2R pharmacoperone assay
Assay type: cell-based
measurement.setup: read-out: EC50 (pharmacoperone rescue); presence of 1 μM vasopressin, no-wash protocol, absence of doxycycline (n=4)
reported.property: pEC50
Note on pEC50: it is the negative log10 of concentration, concentration in mol/L.

**Query** I am curious: what pEC50 value has been reported for CCOc1ccc2c(c1)C1(CCC(OCCN3CCOCC3)CC1)C(=O)N2S(=O)(=O)c1ccc(C(=O)NC(C)(C)C)cc1OC (stereo not shown) [SR121463] ?
**Result** 8.71

---

target.entity: hV2R[L^83Q] (Homo sapiens, UniProt P30518, L83Q)
experiment.description: uHTS optimized primary V2R pharmacoperone assay
Type: cell-based
The reader will find reported pEC50 values listed item by item below.
Note: pEC50 values are expressed as the negative base-10 logarithm of concentration in M.

C=C[C@@]1(C)CC(=O)[C@]2(O)[C@@]3(C)[C@@H](O)CCC(C)(C)[C@@H]3[C@H](O)[C@H](OC(C)=O)[C@@]2(C)O1 [Forskolin] ... 6.37

Consider now this further compound.
**Query** // query pEC50 value for entry C[C@H]1CCC/C=C/[C@@H]2C[C@H](O)C[C@H]2[C@H](O)/C=C/C(=O)O1 [Brefeldin A]
**Result** 6.57
